# subject.of.test: Testis-specific serine/threonine-protein kinase 2 (Homo sapiens)
# condition.parameters: at 1 µM
assay.metric: residual activity (%)
API: value field is a number in %; no unit string.

Here's what some known entries look like.
# chem.smiles, unit.of.measure, residual activity
data = [
    ("O=C1NC(=O)c2cc(Nc3ccc(F)cc3)c(Nc3ccc(F)cc3)cc21", "%", 91),
    ("CN(C)c1ccc(/C=C2\\C(=O)Nc3ccccc32)cc1", "%", 92),
    ("N#C/C(=C1/Nc2ccccc2S1)c1ccnc(NCCc2cccnc2)n1", "%", 82),
]

query: # residual activity lookup, item `CCN1/C(=C/C(C)=O)Sc2ccc(OC)cc21`
result: 77

query: Repeat with `CC(=O)c1ccc(N2CCOCC2)cc1O`
result: 89

query: Repeat with `CCC(=O)Nc1ccc2ncnc(Nc3cccc(Br)c3)c2c1`
result: 95

query: Repeat with `CC(C)[C@H](CO)Nc1nc(Nc2cccc(Cl)c2)c2ncn(C(C)C)c2n1`
result: 94

query: Repeat with `Nc1n[nH]c2nc3ccccc3nc12`
result: 95

query: Repeat with `COc1cc2ncc(-c3ccccc3)nc2cc1OC`
result: 76

query: Repeat with `O=C1NC(=O)c2c1c1c3ccccc3n3c1c1c2c2ccccc2n1C1CCC3O1`
result: 82

query: Repeat with `c1ccc2c(-c3ccncc3)c[nH]c2c1`
result: 100

query: Repeat with `CCN(CC)CCNC(=O)c1c(C)[nH]c(/C=C2\C(=O)Nc3ccc(Cl)cc32)c1C`
result: 62
